# melting point annotations

Check out these entries, answers already filled in.
>>> print(df.to_string())
                                        mol   assay_result
0  C#Cc1cccc(Nc2ncnc3ccc(NC(=O)c4ccc(C(=O)Nc5ccccc5N)nc4)cc23)c1  213 to 216 °C
1  COC(=O)c1cn(Cc2ccccc2)c2ccc(C3CCCCC3)cc2c1=O  211 to 213 °C

Now for another entry.
Query block: Give the measured melting point for "CCCSc1cc(OCc2ccc(Cl)cc2)ccc1C"
Result block: 35 to 36 °C

###

# melting point annotations

>>> df
                                   compound   assay_result
0  O=C1C(=O)N(CCCN2CCN(C(=O)N(c3ccccc3)c3ccccc3)CC2)c2ccccc21  163 to 164 °C
1  COc1ccc(-c2cn(-c3ccc(C(F)(F)F)cc3F)nn2)cc1  152 to 154 °C
2  COc1cc2c(cc1C#N)C1(CO2)C(=O)N(Cc2ccccn2)c2ccccc21 (centres undefined)  187 to 189 °C
3            Cc1cccc(C)c1N(C(=O)CN)C(=O)CCl  135 to 137 °C
4  CC(C)(C)C(O)(COc1ccc(F)cc1)C(F)n1cncn1 (centres undefined)    89 to 90 °C
5       CCCC(=O)c1cnc2c(C)cccc2c1Nc1ccccc1F  109 to 111 °C

Query block: Give the measured melting point for "CC(C(=O)NC(=O)OCC(F)(F)F)(c1ccccc1)c1ccccc1"
Result block: 143 to 145 °C

Query block: Give the measured melting point for "FC(F)(F)C(F)(F)Cc1ccc(CBr)cc1"
Result block: 62 to 63 °C

Query block: Give the measured melting point for "CC(C)(C(=O)O)c1ccc(OCc2ccccc2)cc1"
Result block: 128 to 130 °C

###

# melting point annotations

In [3]: df
Out[3]:
                                  molecule   readout_name   assay_result
0  CCC(=CC#N)c1ccc2c(c1)C1(CCCCC1)OC(=O)N2  melting point  173 to 174 °C
1          Cc1ccccc1N1CCc2cnc3c(C)cccc3c21  melting point  109 to 110 °C

Now for another entry.
Query block: Give the measured melting point for CCC(O)Cn1cc(-c2cccc(C(F)(F)F)c2)cn1 (stereo not drawn)
Result block: 77 to 79 °C

###

readout-name: melting point

Check out these entries, answers already filled in.
>>> df
                                   compound   assay_result
0  CCOC(=O)/C(=C\Nc1ccc(OC)c(OC)c1)c1ccc(OC)cc1    88 to 89 °C
1  Cc1noc(NS(=O)(=O)c2cccc3c(N(C)C)cccc23)c1Br    87 to 89 °C
2  CCSc1cc(C)nc(SCC)c1NC(=O)CCCCSc1nc2ccccc2o1  122 to 123 °C

Query block: Give the measured melting point for CC1(Nc2ccccc2)OC(=O)C=C1c1ccccc1 (centres undefined)
Result block: 158 to 160 °C

Query block: Give the measured melting point for "CC(C)(C)OC(=O)N[C@H](CC(=O)OCc1ccccc1)C(=O)N[C@H](CO)Cc1ccccc1"
Result block: 94 to 95 °C

###

readout-name: melting point

>>> df
                                   molecule   readout_name   assay_result
0  O=c1oc(-c2ccccc2)cc(O)c1C(CC1CCCC1)SC1CCCCC1 (stereo not given)  melting point  157 to 160 °C
1  COC(=O)C1Oc2ccccc2C(C)c2cc(Cl)ccc2O1 (stereo not given)  melting point  124 to 136 °C
2            O=C(C=CCc1ccccc1)NCCCCCC(=O)NO  melting point  126 to 128 °C
3          Cc1cc(CC(=O)O)cc2c1[nH]c1ccccc12  melting point  177 to 179 °C
4  CCOC(=O)CC(O)c1ccc2c(c1)CC(CNS(=O)(=O)c1ccc(Cl)cc1)C2 (stereo not given)  melting point  108 to 111 °C

Query block: Give the measured melting point for "COc1cc2c(c3c1OC(C)(C)C3)C(c1cccc(OCC(N)=O)c1)=NC(C)(C)C2"
Result block: 172 to 174 °C

Query block: Give the measured melting point for "CCOc1cc(C)nc2nc(S(=O)(=O)Nc3c(Cl)ccc(C)c3Cl)nn12"
Result block: 228 to 229 °C

###

readout-name: melting point

Query block: Give the measured melting point for "CCN(CC)CCOc1c(-c2ccc(S(C)(=O)=O)cc2)cnn(-c2cccc(Cl)c2)c1=O"
Result block: 110 to 113 °C

###

readout-name: melting point

In [3]: df
Out[3]:
                                        mol   assay_result
0             COc1cccc2cc(SCCC(=O)O)n(C)c12  120 to 122 °C
1      CCc1cnc(CSc2cnc(NC(=O)c3ccccc3)s2)o1  122 to 123 °C
2  CCOC(=O)c1cnc2onc(C)c2c1N(C)S(=O)(=O)c1ccc(Oc2ccncc2)cc1  155 to 157 °C
3  COC(=O)c1ccnc(N2CCN(Cc3ccc(F)cc3)C2=O)c1  119 to 121 °C

Query block: Give the measured melting point for "COc1cc(OC)nc(-n2nc(SC)n(N)c2=O)n1"
Result block: 198 °C

###

readout-name: melting point

Check out these entries, answers already filled in.
In [3]: df
Out[3]:
                                   compound   assay_result
0  CCCC[C@H](NC(=O)[C@@H](NC(=O)OCc1ccccc1)C(C)C)C(=O)CSCc1ccco1  115 to 116 °C
1              CC(=O)c1ccc(-c2ccc(S)cc2)cc1  126 to 128 °C
2            CCCCN1C(=O)c2cccc3c(SC)ccc1c23    75 to 77 °C
3         CN1CCN(C(=O)c2cc(N)cc3c2OCCO3)CC1         170 °C
4  COc1ccc(Oc2ccc(NC(=O)N3CCc4ccccc4CC3)cn2)cc1  156 to 157 °C

Now for another entry.
Query block: Give the measured melting point for "CC(C)Nc1cccnc1N1CCN(C(=O)c2ccc(C(=O)NCCCn3ccnc3)cn2)CC1"
Result block: 105 to 108 °C

###

# melting point annotations

In [3]: df
Out[3]:
                             compound   readout_name   assay_result
0  Nc1nc(N)nc(C23CC4CC(CC(C4)C2)C3)n1  melting point  261 to 262 °C

Query block: Give the measured melting point for "CC(=O)Oc1ccc(NC(C)=C2C(=O)OC(=O)C(C(C)=O)=C2O)cc1"
Result block: 199 to 201 °C

Query block: Give the measured melting point for "Cc1oc(-c2ccccc2)nc1COc1ccc(/C=C/CO)cn1"
Result block: 116 to 117 °C

Query block: Give the measured melting point for CN1CCCC(O)(c2cccc3c2ccn3C)C1 (stereo unspecified)
Result block: 90 °C

Query block: Give the measured melting point for "Cc1c(Cc2cccc3ccccc23)c(=O)oc2cc(OCc3nnn[nH]3)cc(OCc3nnn[nH]3)c12"
Result block: 164 to 174 °C

Query block: Give the measured melting point for "CCCCn1c(=O)c2c(ncn2S(=O)(=O)c2cc(C)c(Cl)cc2C)n(CCCC)c1=O"
Result block: 138 to 140 °C

Query block: Give the measured melting point for "S=C=Nc1c(Br)cccc1Br"
Result block: 63 to 65 °C

Query block: Give the measured melting point for "N#Cc1c[nH]cc1C(F)(F)F"
Result block: 96 to 97 °C

Query block: Give the measured melting point for "COc1ccccc1NC(=O)C1=C(O)c2ccc3ccccc3c2S(=O)(=O)N1C"
Result block: 198 to 200 °C

Query block: Give the measured melting point for "CCC(C)(C)c1cc(-n2nc3ccccc3n2)c(O)c(C(C)(C)CC)c1"
Result block: 77 to 79 °C

Query block: Give the measured melting point for "CC(C)(O)Cn1c(CO)nc2c(N)nc3ccccc3c21"
Result block: 264 to 271 °C

Query block: Give the measured melting point for "O=C(NCCCCCCCNC(=O)c1ccc2c(c1)OCO2)c1ccc2c(c1)OCO2"
Result block: 151 to 152 °C

Query block: Give the measured melting point for "CCCCN(C)C(N)=C(C#N)C#N"
Result block: 160 to 161 °C

Query block: Give the measured melting point for COc1cc(C(=O)C(Br)CCC2CCCCC2)c(OC)cc1Cl (stereo unspecified)
Result block: 73 to 74 °C

Query block: Give the measured melting point for CCOc1ccc(C(OC(C)=O)c2sccc2C=O)cc1OCC (stereo unspecified)
Result block: 68 °C

Query block: Give the measured melting point for "CCOC(=O)C(=NO)C(=O)Nc1ccc(Cl)cc1C(=O)c1ccccc1"
Result block: 98 to 105 °C

Query block: Give the measured melting point for "CCCCCCCc1cnc([C@H]2CC[C@H](CCCCC)CC2)nc1"
Result block: 22 °C

Query block: Give the measured melting point for "C=CCOc1ccc(CCC(=O)O)cc1"
Result block: 88 to 89 °C

Query block: Give the measured melting point for "Cc1cc(C)c(N2c3ccccc3Sc3cc(C=O)ccc32)c(C)c1"
Result block: 136 to 140 °C
